- Organism: Rattus norvegicus
- EXPERIMENTAL DETAILS: Open TG-GATES - Regimen: Daily Repeat
- Type: toxicity, organism-based, Sprague-Dawley
- Set-up: regimen Daily Repeat, gender Male, age 6 weeks
- CONDITION INFO: in vivo, po, 100 mg/kg, 72 h, tissue Plasma, route gavage, dose level Low, time 3 day
Parameter Na: see the listing below.
MEASURE: Na (meq/L)

>>> reported_value("O=C(O)c1cccnc1")
139.2
>>> reported_value("CCN1CCCC1CNC(=O)c1cc(S(N)(=O)=O)ccc1OC (centres undefined) [SULPIRIDE]")
141
>>> reported_value("CC(C)(S)[C@@H](N)C(=O)O")
143.8
>>> reported_value("O=C(N[C@H](CO)[C@H](O)c1ccc([N+](=O)[O-])cc1)C(Cl)Cl")
141.2

* * *

Parameter TP: see the listing below.
- Species: Rattus norvegicus
- EXPERIMENTAL DETAILS: Open TG-GATES - Regimen: Single
- Type: toxicity, organism-based, Sprague-Dawley
- Parameters: regimen Single, gender Male, age 6 weeks
- CONDITION INFO: in vivo, po, 0 mg/kg, 3 h, tissue Plasma, route gavage, dose level Control
MEASURE: TP (g/dL)

>>> reported_value("CC(C)(S)[C@@H](N)C(=O)O [PENICILLAMINE]")
5.3
>>> reported_value("O=C(N[C@H](CO)[C@H](O)c1ccc([N+](=O)[O-])cc1)C(Cl)Cl [CHLORAMPHENICOL]")
5.3
>>> reported_value("CC(=O)Oc1cc(C(C)C)c(OCCN(C)C)cc1C [MOXISYLYTE]")
5.3
>>> reported_value("CN1C(=O)OC(C)(C)C1=O [TRIMETHADIONE]")
5.3
>>> reported_value("CCc1oc2ccccc2c1C(=O)c1cc(I)c(O)c(I)c1 [BENZIODARONE]")
5.5
>>> reported_value("Nc1nc(N)c2nc(-c3ccccc3)c(N)nc2n1")
5.3
>>> reported_value("CCSCC[C@H](N)C(=O)O [ETHIONINE]")
5.4
>>> reported_value("C[C@]12CCC(=O)C=C1CC[C@@H]1[C@@H]2CC[C@@]2(C)[C@H]1CC[C@]2(C)O [METHYLTESTOSTERONE]")
5.5
>>> reported_value("O=C(O)c1cccnc1 [NIACIN]")
5.7
>>> reported_value("C#C[C@]1(O)CC[C@H]2[C@@H]3CCc4cc(O)ccc4[C@H]3CC[C@@]21C [ETHINYL ESTRADIOL]")
5.5

* * *

- Organism: Rattus norvegicus
- EXPERIMENTAL DETAILS: Open TG-GATES - Regimen: Daily Repeat
- Assay type: toxicity, organism-based, Sprague-Dawley
- Set-up: regimen Daily Repeat, gender Male, age 6 weeks
- CONDITION INFO: in vivo, po, 100 mg/kg, […], tissue Plasma, route gavage, dose level Low, time 28 day
MEASURE: TC

>>> reported_value("O=C(N[C@H](CO)[C@H](O)c1ccc([N+](=O)[O-])cc1)C(Cl)Cl [CHLORAMPHENICOL]")
"75.2 mg/dL"
>>> reported_value("CC(C)(S)[C@@H](N)C(=O)O [PENICILLAMINE]")
"77.2 mg/dL"
>>> reported_value("CCN1CCCC1CNC(=O)c1cc(S(N)(=O)=O)ccc1OC (centres undefined) [SULPIRIDE]")
"63 mg/dL"
>>> reported_value("O=C(O)c1cccnc1 [NIACIN]")
"70.6 mg/dL"

* * *

- Species on record: Rattus norvegicus
- EXPERIMENTAL DETAILS: Open TG-GATES - Regimen: Daily Repeat
- Format: toxicity, organism-based, Sprague-Dawley
- Set-up: regimen Daily Repeat, gender Male, age 6 weeks
- CONDITION INFO: in vivo, po, 1000 mg/kg, 72 h, tissue Blood, route gavage, dose level High, time 3 day
Parameter Lym: see the listing below.
MEASURE: Lym (%)

>>> reported_value("O=C(N[C@H](CO)[C@H](O)c1ccc([N+](=O)[O-])cc1)C(Cl)Cl [CHLORAMPHENICOL]")
87.8
>>> reported_value("O=C(O)c1cccnc1 [NIACIN]")
73.6
>>> reported_value("CC(C)(S)[C@@H](N)C(=O)O [PENICILLAMINE]")
78.6
>>> reported_value("CCN1CCCC1CNC(=O)c1cc(S(N)(=O)=O)ccc1OC (centres undefined) [SULPIRIDE]")
74.8

* * *

Parameter A/G: see the listing below.
- Species: Rattus norvegicus
- EXPERIMENTAL DETAILS: Open TG-GATES - Regimen: Single
- Assay type: toxicity, organism-based, Sprague-Dawley
- Design: regimen Single, gender Male, age 6 weeks
- CONDITION INFO: in vivo, po, 0 mg/kg, 9 h, tissue Plasma, route gavage, dose level Control
MEASURE: A/G

>>> reported_value("C[C@](N)(Cc1ccc(O)c(O)c1)C(=O)O [METHYLDOPA]")
0.9
>>> reported_value("CCc1oc2ccccc2c1C(=O)c1cc(I)c(O)c(I)c1 [BENZIODARONE]")
2.3
>>> reported_value("C[C@]12CCC(=O)C=C1CC[C@@H]1[C@@H]2CC[C@@]2(C)[C@H]1CC[C@]2(C)O [METHYLTESTOSTERONE]")
0.9
>>> reported_value("CC(C)C(=O)Nc1ccc([N+](=O)[O-])c(C(F)(F)F)c1 [FLUTAMIDE]")
1.6
>>> reported_value("CCN1CCCC1CNC(=O)c1cc(S(N)(=O)=O)ccc1OC (configuration not stated) [SULPIRIDE]")
0.9
>>> reported_value("CC(=N)S [THIOACETAMIDE]")
2
>>> reported_value("O=C(N[C@H](CO)[C@H](O)c1ccc([N+](=O)[O-])cc1)C(Cl)Cl [CHLORAMPHENICOL]")
0.9
>>> reported_value("CCSCC[C@H](N)C(=O)O [ETHIONINE]")
1.5
>>> reported_value("CN1C(=O)OC(C)(C)C1=O [TRIMETHADIONE]")
0.9
>>> reported_value("CC(C)(S)[C@@H](N)C(=O)O [PENICILLAMINE]")
0.9
>>> reported_value("Nc1nc(N)c2nc(-c3ccccc3)c(N)nc2n1")
1
>>> reported_value("CC(=O)Oc1cc(C(C)C)c(OCCN(C)C)cc1C [MOXISYLYTE]")
1.3

* * *

- Organism: Rattus norvegicus
- EXPERIMENTAL DETAILS: Open TG-GATES - Regimen: Daily Repeat
- Type: toxicity, organism-based, Sprague-Dawley
- Set-up: regimen Daily Repeat, gender Male, age 6 weeks
- CONDITION INFO: in vivo, po, 0 mg/kg, 72 h, tissue Liver, route gavage, dose level Control, time 3 day
MEASURE: LIVER

>>> reported_value("CCSCC[C@H](N)C(=O)O")
"10.9 g"
>>> reported_value("CCc1oc2ccccc2c1C(=O)c1cc(I)c(O)c(I)c1")
"11.6 g"
>>> reported_value("CCC(C)(C)C(=O)O[C@H]1C[C@@H](C)C=C2C=C[C@H](C)[C@H](CC[C@@H]3C[C@@H](O)CC(=O)O3)[C@H]21")
"11 g"
>>> reported_value("C[C@](N)(Cc1ccc(O)c(O)c1)C(=O)O")
"9.3 g"
>>> reported_value("Nc1nc(N)c2nc(-c3ccccc3)c(N)nc2n1")
"11.1 g"
>>> reported_value("CCN1CCCC1CNC(=O)c1cc(S(N)(=O)=O)ccc1OC (stereo not given) [SULPIRIDE]")
"11.3 g"
>>> reported_value("C[C@]12CCC(=O)C=C1CC[C@@H]1[C@@H]2CC[C@@]2(C)[C@H]1CC[C@]2(C)O")
"10.9 g"
>>> reported_value("CN1C(=O)OC(C)(C)C1=O")
"11.2 g"
>>> reported_value("CC(C)(S)[C@@H](N)C(=O)O")
"11.2 g"
>>> reported_value("CC(=N)S [THIOACETAMIDE]")
"10.7 g"

* * *

- Species: Rattus norvegicus
- EXPERIMENTAL DETAILS: Open TG-GATES - Regimen: Daily Repeat
- Assay type: toxicity, organism-based, Sprague-Dawley
- Parameters: regimen Daily Repeat, gender Male, age 6 weeks
- CONDITION INFO: in vivo, po, 0 mg/kg, 72 h, tissue Plasma, route gavage, dose level Control, time 3 day
Criterion: AST strictly less than 70 IU/L. Met: condition met. Not met: condition not met.

>>> assigned_label("CCC(C)(C)C(=O)O[C@H]1C[C@@H](C)C=C2C=C[C@H](C)[C@H](CC[C@@H]3C[C@@H](O)CC(=O)O3)[C@H]21 [SIMVASTATIN]")
"condition met"
>>> assigned_label("CCc1oc2ccccc2c1C(=O)c1cc(I)c(O)c(I)c1 [BENZIODARONE]")
"condition met"
>>> assigned_label("CC(=N)S [THIOACETAMIDE]")
"condition met"
>>> assigned_label("CCN1CCCC1CNC(=O)c1cc(S(N)(=O)=O)ccc1OC (stereo unspecified) [SULPIRIDE]")
"condition met"
>>> assigned_label("Oc1ncnc2[nH]ncc12 [ALLOPURINOL]")
"condition met"
>>> assigned_label("O=C(O)c1cccnc1 [NIACIN]")
"condition not met"
>>> assigned_label("C[C@](N)(Cc1ccc(O)c(O)c1)C(=O)O [METHYLDOPA]")
"condition not met"
>>> assigned_label("CC(C)C(=O)Nc1ccc([N+](=O)[O-])c(C(F)(F)F)c1 [FLUTAMIDE]")
"condition not met"
>>> assigned_label("O=C(N[C@H](CO)[C@H](O)c1ccc([N+](=O)[O-])cc1)C(Cl)Cl [CHLORAMPHENICOL]")
"condition met"
>>> assigned_label("CN1C(=O)OC(C)(C)C1=O [TRIMETHADIONE]")
"condition not met"
>>> assigned_label("C[C@]12CCC(=O)C=C1CC[C@@H]1[C@@H]2CC[C@@]2(C)[C@H]1CC[C@]2(C)O [METHYLTESTOSTERONE]")
"condition not met"
>>> assigned_label("C#C[C@]1(O)CC[C@H]2[C@@H]3CCc4cc(O)ccc4[C@H]3CC[C@@]21C [ETHINYL ESTRADIOL]")
"condition not met"
